Biological target: JAK2 (Homo sapiens, UniProt O60674)
Construct: endogenous in cells
Sequence (O60674 whole entry): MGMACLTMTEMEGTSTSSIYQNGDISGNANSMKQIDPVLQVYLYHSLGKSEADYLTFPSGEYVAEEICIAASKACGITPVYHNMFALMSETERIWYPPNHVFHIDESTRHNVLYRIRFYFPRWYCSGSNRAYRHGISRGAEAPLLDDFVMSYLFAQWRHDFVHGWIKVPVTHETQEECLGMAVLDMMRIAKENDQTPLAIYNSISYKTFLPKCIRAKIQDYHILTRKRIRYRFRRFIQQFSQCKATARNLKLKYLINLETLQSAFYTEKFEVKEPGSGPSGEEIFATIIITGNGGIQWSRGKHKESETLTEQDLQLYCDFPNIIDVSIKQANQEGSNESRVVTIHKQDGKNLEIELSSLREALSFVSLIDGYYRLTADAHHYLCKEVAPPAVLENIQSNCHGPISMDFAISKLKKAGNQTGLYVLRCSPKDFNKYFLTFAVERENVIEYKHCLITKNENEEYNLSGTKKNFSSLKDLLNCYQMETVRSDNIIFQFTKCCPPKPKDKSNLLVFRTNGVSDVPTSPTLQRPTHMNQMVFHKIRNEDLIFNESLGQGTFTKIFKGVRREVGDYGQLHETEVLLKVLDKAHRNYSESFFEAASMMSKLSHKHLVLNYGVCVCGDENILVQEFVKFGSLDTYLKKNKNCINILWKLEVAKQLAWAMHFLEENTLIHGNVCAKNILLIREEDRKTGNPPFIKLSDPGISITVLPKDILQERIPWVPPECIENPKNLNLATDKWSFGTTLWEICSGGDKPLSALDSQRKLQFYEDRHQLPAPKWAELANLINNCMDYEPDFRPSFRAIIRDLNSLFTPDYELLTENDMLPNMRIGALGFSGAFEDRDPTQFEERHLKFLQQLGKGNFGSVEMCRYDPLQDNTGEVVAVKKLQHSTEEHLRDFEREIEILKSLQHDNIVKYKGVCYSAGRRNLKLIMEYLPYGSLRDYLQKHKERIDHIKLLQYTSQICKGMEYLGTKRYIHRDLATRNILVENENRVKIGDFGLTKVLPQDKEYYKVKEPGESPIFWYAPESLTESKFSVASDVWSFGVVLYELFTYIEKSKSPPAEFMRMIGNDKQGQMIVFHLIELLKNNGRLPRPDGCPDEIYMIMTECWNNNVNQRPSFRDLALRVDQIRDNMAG
Assay: Kinobeads assay, JAK2 (competition binding in mixed Molt4/Ramos cell lysate, dot blot detection)
Conditions: read-out: JAK2 Band (Kinobeads assay potency, IC50)
pIC50: −log10 of the molar value.
Observable: pIC50

CC(C)NC(=O)Cn1cc(Nc2nccc(NCc3c(F)cc(C#N)cc3F)n2)cn1 : 5.00 to 6.00
O=C(O)Cn1cc(Nc2ncc(Cl)c(NCc3cc(F)cc(C(F)(F)F)c3)n2)cn1 : 5.00 to 6.00
Cc1cnc(Nc2cnn(CC(F)F)c2)nc1NCc1c(F)ccc(F)c1F : 6.00 to 7.00
N#C[C@H]1CCN(C(=O)Cn2cc(Nc3ncc(Cl)c(NCc4ccccc4)n3)cn2)C1 : 5.00 to 6.00

QUERY: Answer with reported pIC50 of C[C@H](CO)NC(=O)Cn1cc(Nc2nccc(NCc3c(F)cc(F)cc3F)n2)cn1
RESULT: 5.00 to 6.00

QUERY: Provide only the value of recorded pIC50 for OCCn1cc(Nc2ncc(Cl)c(NCc3cc(F)cc(C(F)(F)F)c3)n2)cn1
RESULT: 5.00 to 6.00

QUERY: Give the measured pIC50 for CS(=O)(=O)c1cccc(CNc2nc(Nc3cnn(CC(=O)NCCO)c3)ncc2Cl)c1
RESULT: 5.00 to 6.00

QUERY: For Cc1noc(Cn2cc(Nc3ncc(Cl)c(NCc4c(F)cccc4F)n3)cn2)n1 , write its pIC50.
RESULT: 5.00 to 6.00

QUERY: Using known records, supply pIC50 for Cc1cnc(Nc2cnn(CC(=O)N3CCOCC3)c2)nc1NCc1c(F)cccc1F
RESULT: 6.00 to 7.00

QUERY: Quickly give me recorded pIC50 for Cn1cc(Nc2ncc(Cl)c(NCc3cc(Br)ccc3F)n2)cn1
RESULT: 6.00 to 7.00

QUERY: Please supply the value of reported pIC50 for the item CS(=O)(=O)c1ccc(F)cc1CNc1nc(Nc2cn[nH]c2)ncc1Cl
RESULT: 6.00 to 7.00

QUERY: Please report pIC50 for the following compound: O=C(Cn1cc(Nc2nccc(NCc3c(F)cc(F)cc3F)n2)cn1)NCCF
RESULT: 5.00 to 6.00

QUERY: Answer with reported pIC50 of CC(C)(C)OC(=O)N1CC2(CN(C(=O)Cn3cc(Nc4ncc(Cl)c(NCc5ccccc5)n4)cn3)C2)C1
RESULT: 5.00 to 6.00

QUERY: Give the measured pIC50 for COc1ccc(S(C)(=O)=O)cc1CNc1nc(Nc2cnn(CC(F)F)c2)ncc1C
RESULT: 6.00 to 7.00

QUERY: Please report pIC50 for the following compound: CS(=O)(=O)NCc1cccc(CNc2nc(Nc3cnn(CC(=O)N4CCOCC4)c3)ncc2Cl)c1
RESULT: 5.00 to 6.00

QUERY: Let me know recorded pIC50 for Cc1cnc(Nc2cnn(C)c2)nc1NCc1c(F)cc(S(N)(=O)=O)cc1F , thanks.
RESULT: 6.00 to 7.00

QUERY: Assign pIC50 to the following record: CCOc1ccc(F)c(CNc2nc(Nc3cnn(CCO)c3)ncc2Cl)c1F
RESULT: 6.00 to 7.00

QUERY: Look up pIC50 of OCCn1cc(Nc2ncc(Cl)c(NCc3cccc(F)c3)n2)cn1 and report it.
RESULT: 6.00 to 7.00

QUERY: Return the recorded pIC50 value; entry: NC(=O)Cn1cc(Nc2nccc(NCc3c(F)cc(F)cc3F)n2)cn1
RESULT: 5.00 to 6.00

QUERY: Fill in reported pIC50 for this entry: O=C(Cn1cc(Nc2nccc(NCc3c(F)cccc3Cl)n2)cn1)NC1CC1
RESULT: 5.00 to 6.00

QUERY: Output pIC50 of CC(C)NC(=O)Cn1cc(Nc2ncc(Cl)c(NCc3cccc(OC(F)F)c3)n2)cn1
RESULT: 5.00 to 6.00

---

The entries below are paired with their reported IC50.
Target: JAK2 (Homo sapiens, UniProt O60674)
Construct: endogenous in cells
Assay: Kinobeads assay, JAK2 (competition binding in mixed Molt4/Ramos cell lysate, dot blot detection)
Conditions: read-out: JAK2 Band (Kinobeads assay potency, IC50)

Completed entries (count: 5):
CN(C)C(=O)Cn1cc(Nc2ncc(F)c(NCc3cc(F)cc(C(F)(F)F)c3)n2)cn1 [Example I-331] : 1 to 10 µM
COc1cc(F)c(CNc2nc(Nc3cnn(C)c3)ncc2C)c(F)c1 [Example I-314] : 1 to 10 µM
Cc1cnc(Nc2cnn(C)c2)nc1NCc1cccc(CNS(C)(=O)=O)c1 [Example I-402] : 1 to 10 µM
Cc1cnc(Nc2cnn(CC(F)F)c2)nc1NCc1ccc(S(N)(=O)=O)cc1 [Example I-465] : 1 to 10 µM
Cc1cnc(Nc2cnn(CC(=O)N3CCOCC3)c2)nc1NCc1c(F)cc(F)cc1F [Example I-21] : 1 to 10 µM

QUERY: Provide only the value of recorded IC50 for COc1ccc(F)c(CNc2nc(Nc3cnn(C)c3)ncc2C)c1F [Example I-302]
RESULT: 0.1 to 1 µM

QUERY: Annotate the compound [2H]C([2H])(O)C([2H])([2H])n1cc(Nc2ncc(Cl)c(NCc3ccccc3)n2)cn1 [Example I-231] with its measured IC50.
RESULT: 1 to 10 µM

QUERY: For the compound Cn1cc(Nc2ncc(Cl)c(NCc3ccccc3F)n2)cn1 [Example I-173] , give its measured IC50 value.
RESULT: 0.1 to 1 µM

QUERY: Assign IC50 to the following record: C[C@H](CO)NC(=O)Cn1cc(Nc2nccc(NCc3c(Cl)ccc(Cl)c3F)n2)cn1 [Example I-131]
RESULT: 0.1 to 1 µM

QUERY: Output measured IC50 for this item: CNC(=O)Cn1cc(Nc2ncc(Cl)c(NCc3cc(C(F)(F)F)ccc3Cl)n2)cn1 [Example I-280]
RESULT: 0.1 to 1 µM

QUERY: State its IC50 for this compound: CS(=O)(=O)c1ccccc1CNc1nc(Nc2cnn(CC(N)=O)c2)ncc1Cl [Example I-450]
RESULT: 0.1 to 1 µM

QUERY: Name the recorded IC50 of the compound listed here: N#CC1CN(C(=O)Cn2cc(Nc3ncc(Cl)c(NCc4ccccc4)n3)cn2)C1 [Example I-274]
RESULT: 1 to 10 µM

---

Item-by-item account of IC50
Biological target: JAK2 (Homo sapiens)
Construct: endogenous in cells
Assay: Kinobeads assay, JAK2 (competition binding in mixed Molt4/Ramos cell lysate, dot blot detection)
Conditions: read-out: JAK2 Band (Kinobeads assay potency, IC50)

QUERY: Under JAK2 (Homo sapiens): report IC50 of CNC(=O)Cn1cc(Nc2ncc(Cl)c(NCc3ccccc3F)n2)cn1 .
RESULT: 100 to 1000 nM

QUERY: Report value: IC50, system: JAK2 (Homo sapiens), compound: Cn1ncnc1Cn1cc(Nc2ncc(Cl)c(NCc3ccccc3)n2)cn1
RESULT: 1000 to 10000 nM

QUERY: Give IC50 for Cc1cnc(Nc2cnn(C)c2)nc1NCc1c(F)cccc1F tested on JAK2 (Homo sapiens).
RESULT: 100 to 1000 nM

---

In this section, each of the molecules is paired with its reported pIC50.
Target: JAK2 (Homo sapiens, UniProt O60674)
Construct: endogenous in cells
Test: Kinobeads assay, JAK2 (competition binding in mixed Molt4/Ramos cell lysate, dot blot detection)
Settings: read-out: JAK2 Band (Kinobeads assay potency, IC50)
Method: The compounds of the present invention as described in the previous examples were tested in a Kinobeads™ assay as described for ZAP-70 (WO-A 2007/137867). […] Bound proteins were then eluted and the presence of TYK2 and JAK2 was detected and quantified using specific antibodies in a dot blot procedure and the Odyssey infrared detection system. Dose response curves for individual kinases were generated and IC50 values calculated. […]
pIC50: −log10 of the molar value.

CC(C#N)NC(=O)Cn1cc(Nc2nccc(NCc3c(F)cc(F)cc3F)n2)cn1 (centres unmarked) : < 5.00

QUERY: Return pIC50 (reported value) for this molecule: O=C(Cn1cc(Nc2nccc(NCc3c(F)cc(F)cc3F)n2)cn1)N[C@H]1C[C@H]1F
RESULT: 5.00 to 6.00

---

Target: JAK2 (Homo sapiens, UniProt O60674)
Construct: endogenous in cells
Assay: Kinobeads assay, JAK2 (competition binding in mixed Molt4/Ramos cell lysate, dot blot detection)
Settings: read-out: JAK2 Band (Kinobeads assay potency, IC50)
pIC50: −log10 of the molar value.
Let's look at some compounds and their measured pIC50.

Recorded results for 3 compounds are shown here.
O=C(O)Cn1cc(Nc2ncc(Cl)c(NCc3c(F)cccc3F)n2)cn1 : 5.00 to 6.00
Cn1cc(Nc2nccc(NCc3c(Cl)ccc(Cl)c3F)n2)cn1 : 6.00 to 7.00
Cc1cnc(Nc2cnn(CC(=O)NC3CC3)c2)nc1NCc1cc(F)cc(F)c1 : 6.00 to 7.00

Alright, here's another compound for you.
QUERY: Consider the compound COc1ccc(F)c(CNc2nc(Nc3cnn(CC(=O)NCC(C)C)c3)ncc2Cl)c1F and give its recorded pIC50.
RESULT: 5.00 to 6.00
